testTarget: PPARδ (Homo sapiens, UniProt Q03181)
Construct: expressed in transfected cells; host or cells: COS-7
Sequence (Q03181 211-439): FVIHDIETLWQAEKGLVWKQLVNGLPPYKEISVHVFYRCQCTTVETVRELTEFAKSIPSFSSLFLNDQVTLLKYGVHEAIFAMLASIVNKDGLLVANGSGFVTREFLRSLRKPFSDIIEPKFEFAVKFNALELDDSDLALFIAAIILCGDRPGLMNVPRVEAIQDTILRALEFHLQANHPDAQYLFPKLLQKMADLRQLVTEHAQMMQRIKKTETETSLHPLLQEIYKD
protocolDescription: PPAR transactivation assay in COS-7 cells (Gal4-hPPAR-LBD, luciferase)
Assay type: cell-based
conditionInfo: i.a. = inactive
measuredProperty: EC50 PPARδ

In plain terms, CCOC(=O)/C=C/c1ccc(C(=O)NCc2ccccc2C(F)(F)F)cc1 [Compound 16a] has a documented EC50 PPARδ of i.a.

Consider CCOC(=O)C(CC)Cc1ccc(C(=O)NCc2ccccc2OC(F)(F)F)cc1 (centres unmarked) . Its measured EC50 PPARδ is n.t. i.a. i.a. n.t.

EC50 PPARδ for CCC(Cc1ccc(C(=O)NCc2ccccc2Cl)cc1)C(=O)O (centres unmarked) is n.t. i.a. i.a. n.t.

The recorded EC50 PPARδ for CCCC(Cc1ccc(C(=O)NCc2ccccc2C(F)(F)F)cc1)C(=O)O (centres unmarked) [Compound 18c] is i.a.

// field: EC50 PPARδ; key: CCOC(=O)C(CC)Cc1ccc(C(=O)NCc2ccccc2Br)cc1 (centres unmarked) ; value = n.t. i.a. i.a. n.t.

Give one value of EC50 PPARδ per listed compound.
1. CON(C)C(=O)C1CC1c1ccc(C(=O)NCc2ccccc2C(F)(F)F)cc1 (centres unmarked)
2. CCC(Cc1ccc(C(=O)NCc2ccc(Cl)cc2)cc1)C(=O)O (centres unmarked) [Compound 11c]
3. CCOC(=O)C(CC)Cc1ccc(C(=O)NCc2ccc(Oc3ccccc3)cc2)cc1 (centres unmarked) [Compound 12b]
4. CCOC(=O)C(CC)Cc1ccc(C(=O)NCc2ccccc2Cl)cc1 (centres unmarked)

["i.a.", "n.t. i.a. i.a. n.t.", "i.a.", "n.t. i.a. i.a. n.t."]

Hi there! I need EC50 PPARδ for each item below, if you can.
1. CCOC(=O)C(CC)Cc1ccc(C(=O)NCc2ccc(OC)cc2)cc1 (centres unmarked) [Compound 10b]
2. CCOC(=O)C(C)Cc1ccc(C(=O)NCc2ccccc2C(F)(F)F)cc1 (centres unmarked) [Compound 17b]

n.t. i.a. i.a. n.t.
i.a.

The measured values listed here are drawn from patent US11447445B2.
